- Method Summary: qHTS profiling for inhibitors of Plasmodium falciparum proliferation (AID 504749); further: nearly all actives have a fitted effect of over 60% in size;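 on activity, negative = inhibition: 0% = DMSO vehicle and full inhibition = artemisinin control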
- Condition Summary: P. falciparum in erythrocytes, SYBR Green DNA, 72 h; at 28.7 µM (top of the series); parasite line A
Inconclusive results are not listed.
Parameter Measured: activity, negative = inhibition (%)

* Clc1ccc(C(c2ccccc2Cl)C(Cl)Cl)cc1 (stereo not given) | -12.9
* Clc1ccc2c(c1)C(N1CCNCC1)=Nc1ccccc1O2 | -18.9
* COc1ccc2[nH]cc(CCNC(C)=O)c2c1 | 6.49
* CC(C)Cc1ccc(C(C)C(=O)O)cc1 (stereo not given) | 5.92
* COc1ccc(CCN(C)CCCC(C#N)(c2ccc(OC)c(OC)c2)C(C)C)cc1OC (stereo not given) | 7.01
* NC12CC3CC(CC(C3)C1)C2 | 8.47
* CC(=O)OCC(CCn1cnc2cnc(N)nc21)COC(C)=O | -2.23
* Cn1cnc2c1c(=O)[nH]c(=O)n2C | 1.87
* CCOC(=O)c1ncn2c1CN(C)C(=O)c1cc(F)ccc1-2 | 8.32
* CC(C)NCC(O)c1ccc(O)c(O)c1 (stereo not given) | -3.62
* Cc1cnc(C(=O)NCCc2ccc(S(=O)(=O)NC(=O)NC3CCCCC3)cc2)cn1 | 8.33
* Clc1ccc2nsnc2c1NC1=NCCN1 | 6.78
* NCCS(=O)(=O)O | 5.98
* CC(C)C(=O)Nc1ccc([N+](=O)[O-])c(C(F)(F)F)c1 | 5.81
* Cc1cc(C(C)(C)C)c(O)c(C)c1CC1=NCCN1 | -4.77

###

- Method Summary: qHTS profiling of the MIPE4 collection as inhibitors of Plasmodium falciparum (DD2) proliferation (Rep 2) (AID 743346)
- Condition Summary: P. falciparum Dd2 in erythrocytes, SYBR Green DNA, 72 h; at 28.5 µM (top of the series) unless noted
Under this convention, 1.0 denotes parasite growth, % of control (lower = inhibition) strictly below 80% and 0.0 denotes parasite growth, % of control (lower = inhibition) at or above 80%.

- C[C@H]1c2cccc(O)c2C(O)=C2C(=O)[C@]3(O)C(O)=C(C(N)=O)C(=O)[C@@H](N(C)C)[C@@H]3[C@@H](O)[C@@H]21: 1.0
- Cc1cc(C(C)(C)C)cc(C)c1CC1=NCCN1: 1.0
- CN1CCN2c3ccccc3Cc3ccccc3C2C1 (stereo unspecified): 1.0
- NCCc1cnc[nH]1: 0.0
- Cn1ccc2cc3c(cc21)CCN3C(=O)Nc1cccnc1: 1.0
- Nc1c2c(nc3ccccc13)CCCC2: 1.0
- C[C@](N)(Cc1ccc(O)c(O)c1)C(=O)O: 1.0
- CC12CC3CC(C)(C1)CC(N)(C3)C2: 0.0
- CC(C)NCC(O)COc1ccc(CCOCC2CC2)cc1 (stereo unspecified): 1.0
- NC(=O)OCC(COC(N)=O)c1ccccc1: 0.0
- NC(=O)NO: 0.0
- COc1nc(C)nc(Cl)c1NC1=NCCN1: 0.0
- O=c1c(-c2ccc(O)cc2)coc2cc(O)cc(O)c12: 1.0

###

Let's look at some compounds and their measured Z-AUC.
- Method Summary: qHTS drug screen for cell cycle checkpoint inhibitors in PARPi-resistant BRCA-mutant ovarian cancer cell lines. (AID 1963452)
- Condition Summary: PEO1/OlaR viability, CellTiter-Glo luminescence, 96 h; measured here: PEO1 parental Z-AUC; stronger effect = lower value
Parameter Measured: Z-AUC

- CN(C)c1nc(N(C)C)nc(N(C)C)n1: 0.778
- O=C(c1ccc(OCCN2CCCCC2)cc1)c1c(-c2ccc(O)cc2)sc2cc(O)ccc12: 0.409
- COc1ccc2c(c1)c(CC(=O)O)c(C)n2C(=O)c1ccc(Cl)cc1: 0.391
- CNCCCC12CCC(c3ccccc31)c1ccccc12: 0.397
- CCc1cccc2c3c([nH]c12)C(CC)(CC(=O)O)OCC3 (configuration not stated): 0.962
- COc1ccccc1OCC(O)CN1CCN(CC(=O)Nc2c(C)cccc2C)CC1 (configuration not stated): 0.571
- NS(=O)(=O)c1cc2c(cc1Cl)NCNS2(=O)=O: 1.34

###

- Method Summary: Quantitative High-Throughput drug screen in 47 multiple myeloma cell lines against the NCATS MIPE library collection: KMS11_JCRBsus cell viability assay (AID 1919873); further: nearly all actives have a fitted effect of over 50% in size
- Condition Summary: KMS11 myeloma viability, CellTiter-Glo ATP luminescence, 48 h; series mostly up to 45.8 µM
Results filed as inconclusive are left out. Active and inactive are the calls of the source. Calls come from the whole dose curve; as a rule, active = well fitted cell-killing curve with a large enough effect; inconclusive = small, poorly fitted or top-dose-only effect, or effect the other way; inactive = no such curve, though single readings can be large or run the other way.
Labels: True = active, False = inactive

* CN1CCN2c3ccccc3Cc3ccccc3C2C1 (centres undefined) | True
* C[C@@H]1CC(=O)NN=C1c1ccc(NN=C(C#N)C#N)cc1 | True
* Nc1nc2c(ncn2COC(CO)CO)c(=O)[nH]1 | True
* CN(CCOc1ccc(NS(C)(=O)=O)cc1)CCc1ccc(NS(C)(=O)=O)cc1 | False
* CN1C2CCC1CC(OC(=O)C(CO)c1ccccc1)C2 (centres undefined) | False
* CC(C)Cc1ccc(C(C)C(=O)O)cc1 (centres undefined) | False
* COc1ccc(C2CNC(=O)C2)cc1OC1CCCC1 (centres undefined) | False
* CN(C)C(=O)C(CCN1CCC(O)(c2ccc(Cl)cc2)CC1)(c1ccccc1)c1ccccc1 | True
* OCCN1CCN(CCCN2c3ccccc3Sc3ccc(C(F)(F)F)cc32)CC1 | True

###

- Method Summary: qHTS Screen of the MIPE 4.0 Collection Against Ewings Sarcoma (TC32) (AID 1259256); further: nearly all actives have a fitted effect of over 45% in size
- Condition Summary: TC32 Ewing sarcoma viability, CellTiter-Glo, 48 h; series mostly up to 45.8 µM
Inconclusive results are not listed. The source made the active and inactive calls. Calls come from the whole dose curve; as a rule, active = well fitted inhibition curve with a large enough effect; inconclusive = small, poorly fitted or top-dose-only effect; inactive = no such curve, though single readings can be large or run the other way.
Labels: active, inactive

• CN(C)c1nc(N(C)C)nc(N(C)C)n1 = inactive
• Cc1cn([C@H]2C[C@H](N=[N+]=[N-])[C@@H](CO)O2)c(=O)[nH]c1=O = inactive
• NS(=O)(=O)c1cc2c(cc1Cl)NCNS2(=O)=O = inactive
• COc1ccccc1OCCNCC(O)COc1cccc2[nH]c3ccccc3c12 (configuration not stated) = inactive
• CC1(CN2CCC(n3c(=O)[nH]c4ccccc43)CC2)OCc2ccccc2-n2cccc21 (configuration not stated) = active
• O=c1[nH]cc(F)c(=O)[nH]1 = active
• CCOC(=O)C(C)(C)Oc1ccc(Cl)cc1 = inactive

###

- Tested on: CP238
- Method Summary: qHTS profiling for inhibitors of Plasmodium falciparum proliferation (AID 504749); further: nearly all actives have a fitted effect of over 60% in size
- Condition Summary: P. falciparum in erythrocytes, SYBR Green DNA, 72 h; series mostly up to 28.7 µM
Records with an inconclusive call do not appear. The source made the active and inactive calls. The call rests on the fitted dose curve; in most records, active means well fitted inhibition curve with a large enough effect; inconclusive means small, poorly fitted or top-dose-only effect; inactive means flat fitted curve, though single readings scatter.
Labels: y (active), n (inactive)

- CC(CCc1ccc(O)cc1)NCCc1ccc(O)c(O)c1 (stereo not drawn): n
- O=C(c1ccc(F)cc1)C1CCN(CCn2c(=O)[nH]c3ccccc3c2=O)CC1: n
- NC12CC3CC(CC(C3)C1)C2: n
- O=c1c(-c2ccc(O)cc2)coc2cc(O)cc(O)c12: n
- CN1CCN2c3ccccc3Cc3ccccc3C2C1 (stereo not drawn): n
- Clc1ccc(C(c2ccccc2Cl)C(Cl)Cl)cc1 (stereo not drawn): n
- CN(C)CCCN1c2ccccc2CCc2ccc(Cl)cc21: n
- COc1nc(C)nc(Cl)c1NC1=NCCN1: n
- CN(C)C(=N)N=C(N)N: n
- CCC1(c2ccccc2)C(=O)NCNC1=O: n
- CC(C)NCC(O)c1ccc(O)c(O)c1 (stereo not drawn): n
- OCCN1CCN(CCCN2c3ccccc3Sc3ccc(C(F)(F)F)cc32)CC1: y
- CC(=O)OCC(CCn1cnc2cnc(N)nc21)COC(C)=O: n

###

- Method Summary: qHTS of pediatric cancer cell lines to identify multiple opportunities for drug repurposing: Confirmatory screen for U-2 OS cells (AID 1347122); further: nearly all actives have a fitted effect of over 65% in size
- Condition Summary: U-2 OS osteosarcoma cell viability; series mostly up to 45.9 µM
Inconclusive results are not listed. Active and inactive are the calls of the source. Calls follow the shape of the dose curve; as a rule, active = well fitted cell-killing curve with a large enough effect; inconclusive = small, poorly fitted or top-dose-only effect; inactive = no such curve, though single readings can be large or run the other way.
Labels: Yes for active, No for inactive

* NC(=O)NO | Yes
* CC(CCc1ccc(O)cc1)NCCc1ccc(O)c(O)c1 (stereo not drawn) | No
* CC[C@@]1(O)C(=O)OCc2c1cc1n(c2=O)Cc2cc3c(CN(C)C)c(O)ccc3nc2-1 | Yes

###

- Tested On: Chromobox protein homolog 1 (Homo sapiens)
- Method Summary: qHTS Validation Assay for Inhibitors of HP1-beta Chromodomain Interactions with Methylated Histone Tails (AID 488953); further: nearly all actives have a fitted effect of over 50% in size
- Condition Summary: HP1-beta chromodomain / methylated histone peptide binding assay; series mostly up to 114 µM
Inconclusive results are not listed. Calls of active or inactive are those of the source. Calls follow the shape of the dose curve; as a rule, active = well fitted inhibition curve with a large enough effect; inconclusive = small, poorly fitted or top-dose-only effect; inactive = no such curve, though single readings can be large or run the other way.
Labels: t (active), f (inactive)

* NS(=O)(=O)c1cc2c(cc1Cl)NCNS2(=O)=O | f
* CC(C)NCC(O)c1ccc(O)c(O)c1 (centres undefined) | t
* CC1COc2c(N3CCN(C)CC3)c(F)cc3c(=O)c(C(=O)O)cn1c23 (centres undefined) | f
* CN(C)CCCN1c2ccccc2CCc2ccc(Cl)cc21 | f
* Cc1cc(C(C)(C)C)c(O)c(C)c1CC1=NCCN1 | f
* CNCCCC12CCC(c3ccccc31)c1ccccc12 | f
* COc1ccc2c(c1)c(CC(=O)O)c(C)n2C(=O)c1ccc(Cl)cc1 | f
* N[C@@H](Cc1c[nH]c2ccc(O)cc12)C(=O)O | f
* CCOC(=O)C(C)(C)Oc1ccc(Cl)cc1 | f
* O=C1c2c(O)ccc(O)c2C(=O)c2c(NCCNCCO)ccc(NCCNCCO)c21 | t
* Nc1ccn([C@H]2CC[C@@H](CO)O2)c(=O)n1 | f
* Clc1ccccc1C(c1ccccc1)(c1ccccc1)n1ccnc1 | t
* CCN1CCCC1CNC(=O)c1cc(S(=O)(=O)CC)c(N)cc1OC (centres undefined) | f
* CC12CC3CC(C)(C1)CC(N)(C3)C2 | f
* CCCCc1oc2ccccc2c1C(=O)c1cc(I)c(OCCN(CC)CC)c(I)c1 | t
* Nc1nc2c(ncn2COC(CO)CO)c(=O)[nH]1 | f
* CN(C)CCOC(c1ccccc1)c1ccccc1 | f
* CCOC(=O)c1ncn2c1CN(C)C(=O)c1cc(F)ccc1-2 | f
* O=c1c(-c2ccc(O)cc2)coc2cc(O)cc(O)c12 | f
